target desc: T1, G-CSF receptor (natural G-CSF receptor, found on hematopoietic cells) (mouse (bone marrow cells of Balb C …, UniProt P40223 26-837))
T1 sequence (looked up): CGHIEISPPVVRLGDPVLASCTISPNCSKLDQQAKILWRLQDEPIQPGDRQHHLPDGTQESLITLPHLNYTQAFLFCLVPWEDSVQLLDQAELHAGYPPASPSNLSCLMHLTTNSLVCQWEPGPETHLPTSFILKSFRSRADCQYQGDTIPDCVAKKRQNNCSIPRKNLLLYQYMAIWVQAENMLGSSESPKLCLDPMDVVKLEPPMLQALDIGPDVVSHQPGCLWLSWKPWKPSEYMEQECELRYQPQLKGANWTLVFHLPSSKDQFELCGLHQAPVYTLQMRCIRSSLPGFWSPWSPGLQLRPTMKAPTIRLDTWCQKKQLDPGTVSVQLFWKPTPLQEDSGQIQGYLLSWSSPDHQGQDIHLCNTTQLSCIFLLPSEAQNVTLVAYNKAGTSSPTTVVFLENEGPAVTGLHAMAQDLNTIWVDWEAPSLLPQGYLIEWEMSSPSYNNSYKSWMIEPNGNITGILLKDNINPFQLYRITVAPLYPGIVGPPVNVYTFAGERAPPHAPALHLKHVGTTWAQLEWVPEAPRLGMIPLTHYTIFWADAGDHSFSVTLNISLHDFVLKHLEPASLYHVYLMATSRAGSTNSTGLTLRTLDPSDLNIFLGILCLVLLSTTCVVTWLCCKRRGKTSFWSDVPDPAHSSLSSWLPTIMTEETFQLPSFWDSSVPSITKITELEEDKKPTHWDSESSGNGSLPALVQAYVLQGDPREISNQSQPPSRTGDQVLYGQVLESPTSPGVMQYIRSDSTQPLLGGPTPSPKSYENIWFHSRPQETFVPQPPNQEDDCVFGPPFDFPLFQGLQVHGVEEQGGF
test summary: cell-based or functional assay
property: % Normal G-CSF Activity (3H-thymidine uptake, mouse bone marrow cells) (%)
Report only the number, with the unit % understood.

Sample records with % Normal G-CSF Activity (3H-thymidine uptake, mouse bone marrow cells):
{"binder": "G-CSF analog Glu124->Ala124 (ligand) MTPLGPASSLPQSFLLKCLEQVRKIQGDGAALQEKLCATYKLCHPEELVLLGHSLGIPWAPLSSCPSQALQLAGCLSQLHSGLFLYQGLLQALEGISPELGPTLDTLQLDVADFATTIWQQMEALGMAPALQPTQGAMPAFASAFQRRAGGVLVASHLQSFLEVSYRVLRHLAQP", "uom": "%", "endpoint result": 75}
{"binder": "G-CSF analog Gln26->Ala26 (ligand) MTPLGPASSLPQSFLLKCLEQVRKIAGDGAALQEKLCATYKLCHPEELVLLGHSLGIPWAPLSSCPSQALQLAGCLSQLHSGLFLYQGLLQALEGISPELGPTLDTLQLDVADFATTIWQQMEELGMAPALQPTQGAMPAFASAFQRRAGGVLVASHLQSFLEVSYRVLRHLAQP", "uom": "%", "endpoint result": 51}

Field request: % Normal G-CSF Activity (3H-thymidine uptake, mouse bone marrow cells) | item: G-CSF analog Gln174->Ala174 (ligand) MTPLGPASSLPQSFLLKCLEQVRKIQGDGAALQEKLCATYKLCHPEELVLLGHSLGIPWAPLSSCPSQALQLAGCLSQLHSGLFLYQGLLQALEGISPELGPTLDTLQLDVADFATTIWQQMEELGMAPALQPTQGAMPAFASAFQRRAGGVLVASHLQSFLEVSYRVLRHLAAP 100

Field request: % Normal G-CSF Activity (3H-thymidine uptake, mouse bone marrow cells) | item: G-CSF analog His44->Ala44 (ligand) MTPLGPASSLPQSFLLKCLEQVRKIQGDGAALQEKLCATYKLCAPEELVLLGHSLGIPWAPLSSCPSQALQLAGCLSQLHSGLFLYQGLLQALEGISPELGPTLDTLQLDVADFATTIWQQMEELGMAPALQPTQGAMPAFASAFQRRAGGVLVASHLQSFLEVSYRVLRHLAQP 10.8

Field request: % Normal G-CSF Activity (3H-thymidine uptake, mouse bone marrow cells) | item: G-CSF analog Asp110->Ala110 (ligand) MTPLGPASSLPQSFLLKCLEQVRKIQGDGAALQEKLCATYKLCHPEELVLLGHSLGIPWAPLSSCPSQALQLAGCLSQLHSGLFLYQGLLQALEGISPELGPTLDTLQLAVADFATTIWQQMEELGMAPALQPTQGAMPAFASAFQRRAGGVLVASHLQSFLEVSYRVLRHLAQP 29

Field request: % Normal G-CSF Activity (3H-thymidine uptake, mouse bone marrow cells) | item: G-CSF analog Arg23->Ala23 (ligand) MTPLGPASSLPQSFLLKCLEQVAKIQGDGAALQEKLCATYKLCHPEELVLLGHSLGIPWAPLSSCPSQALQLAGCLSQLHSGLFLYQGLLQALEGISPELGPTLDTLQLDVADFATTIWQQMEELGMAPALQPTQGAMPAFASAFQRRAGGVLVASHLQSFLEVSYRVLRHLAQP 31

Field request: % Normal G-CSF Activity (3H-thymidine uptake, mouse bone marrow cells) | item: G-CSF analog Phe114->Val114, Thr117->Ala117 (ligand) MTPLGPASSLPQSFLLKCLEQVRKIQGDGAALQEKLCATYKLCHPEELVLLGHSLGIPWAPLSSCPSQALQLAGCLSQLHSGLFLYQGLLQALEGISPELGPTLDTLQLDVADVATAIWQQMEELGMAPALQPTQGAMPAFASAFQRRAGGVLVASHLQSFLEVSYRVLRHLAQP 0

Field request: % Normal G-CSF Activity (3H-thymidine uptake, mouse bone marrow cells) | item: G-CSF analog Glu20->Ala20; Ser13->Gly13 (ligand) MTPLGPASSLPQGFLLKCLAQVRKIQGDGAALQEKLCATYKLCHPEELVLLGHSLGIPWAPLSSCPSQALQLAGCLSQLHSGLFLYQGLLQALEGISPELGPTLDTLQLDVADFATTIWQQMEELGMAPALQPTQGAMPAFASAFQRRAGGVLVASHLQSFLEVSYRVLRHLAQP 0

Source of measurements: patent US20030171559A1
